Reference for the values: PubChem BioAssay (NCI)

System: OVCAR-5 ovarian
protocol.description: NCI tumour cell line growth inhibition, 48 h
value.kind: TGI

compound: CCOC(=O)CN(Cc1ccccc1)Cc1c(C(=O)c2ccccc2)c2ccccc2n1C(=O)c1ccccc1
TGI: > 100 µM

Request: Entry under review: Cc1cnc2[nH]c(-c3cccc(Cl)c3)cc(=O)c2c1 . Reported TGI?
Response: > 100 µM

Request: Entry under review: COc1ccc(S(=O)(=O)N/N=C(\C)CN2C(=O)c3ccccc3C2=O)cc1 . Reported TGI?
Response: > 100 µM

Request: Entry under review: N#Cc1ccc2oc3ccc(C#N)cc3c(=O)c2c1 . Reported TGI?
Response: 34.5 µM

Request: Entry under review: CN1CCN(c2cc(Nc3cc(C4CC4)[nH]n3)nc(Nc3ccc(CC(=O)NCc4cccc(F)c4)cc3)n2)CC1 . Reported TGI?
Response: 15.8 µM

Request: Entry under review: CS(=O)(=O)CS(=O)CS(=O)CS(=O)CC(NC(=O)CCC(N)C(=O)O)C(=O)O (stereo not drawn) . Reported TGI?
Response: > 100 µM
